System: CCRF-CEM
measurement notes: NCI tumour cell line growth inhibition, 48 h
Activity calls are given as the source filed them. No stated cut-off is given here; in the data, active = GI50 up to about 1.1 µM and inactive = higher.
Your answer must be one of the following: class 1 = active, class 0 = inactive

{"columns": ["compound", "class assignment"],
 "data": [
  ["Cc1cc(O)nc(CNC(=O)Cc2ccccc2)n1", "class 0"],
  ["CCOCNC(=O)N(COCC)COCC", "class 0"],
  ["O=[N+]([O-])c1cccc(/N=N/c2c(O)ccc3ccccc23)c1", "class 0"],
  ["CCOc1ccc(/C=C(\\Cl)c2ccc(OC)cc2)cc1", "class 0"],
  ["CC1=Nc2c(ccc3c2C(=O)c2ccccc2C3=O)NC(c2cccc3c2CCC3)C1 (stereo unspecified)", "class 1"]
]}

Okay, next one:
Ask: What classification did Cc1cc2nc3c(C(OC4OC(CO)C(O)C(O)C4O)C(O)CO)nn(-c4ccccc4)c3nc2cc1C (stereo unspecified) end up with in this test?
Result: class 0

###

Test system: DU-145
measurement notes: NCI tumour cell line growth inhibition, 48 h
Calls of active or inactive are those of the source. No stated cut-off is given here; in the data, active = GI50 up to about 1.1 µM and inactive = higher.
What GI50 was measured for each of the following?

{"columns": ["molecule", "target under test", "GI50"],
 "data": [
  ["Cc1cc(NS(=O)(=O)c2ccc(NC(NC(=O)OC(C)C)(C(F)(F)F)C(F)(F)F)cc2)nc(C)n1", "DU-145", "> 100 µM (inactive)"]
]}

Need GI50 for each of these molecules.
1. Cc1ccccc1NC(=N)Nc1ccccc1C
2. COc1ccc(/C=C2\N=C(SC)N(CN3CCCCC3)C2=O)cc1
3. O=[N+]([O-])/C(C(Cl)=C(Cl)Cl)=C(\Nc1cccc2ccccc12)Sc1ccccc1
4. COc1cc(O)c2c(=O)c(OC)c(-c3ccc4c(c3)OCO4)oc2c1OC
5. CC(Cc1ccccc1)Nc1ncnc2c1ncn2C1OC(CO)CC1O (stereo unspecified)
6. CCc1c(O)c2c(c(O)c1C(C)=O)C(=O)c1c(cc(O)c(C(=O)O)c1C(=O)O)C2=O
7. CCCCc1ccc(Nc2nc(S)c3[nH]cnc3n2)cc1
8. C1CCNCC1.O=C1NC(=S)N/C1=C/c1ccccc1O

Result:
1: > 100 µM (inactive); 2: > 100 µM (inactive); 3: 13.2 µM (inactive); 4: > 50 µM (inactive); 5: > 100 µM (inactive); 6: > 100 µM (inactive); 7: 35.5 µM (inactive); 8: > 100 µM (inactive)

Need GI50 for each of these molecules.
1. COC(=O)CCC1=C(CC(=O)OC)C(C)(OC)N/C1=N/C(=O)OCc1ccccc1 (stereo unspecified)
2. CN(C)N1C(=C(C#N)C#N)C(c2ccccc2)CC1C#N (stereo unspecified)
3. O=c1[nH]nc(Cc2ccccc2)n1/N=C/c1ccc([N+](=O)[O-])o1
4. CC(=O)OC(C)(C)CCC(=O)[C@](C)(O)[C@H]1[C@H](O)C[C@@]2(C)[C@@H]3CCc4c(cc(OC5OC(CO)C(O)C(O)C5O)c(O)c4C)C3(C)C(=O)C[C@]12C (stereo partly specified)

Result:
1: > 100 µM (inactive); 2: > 100 µM (inactive); 3: 3.77 µM (inactive); 4: > 100 µM (inactive)

Need GI50 for each of these molecules.
1. [N-]=[N+]=NCC1OC(n2cnc3c(N)ncnc32)C2OC12 (stereo unspecified)
2. CC1C2CC(CC2O)C1(C)C (stereo unspecified)
3. COC(=O)C1OC(O[C@H]2CC[C@]3(C)[C@H]4CC=C5[C@@H]6CC(C)(C)CC[C@]6(C(=O)OC6OCC(O)C(O)C6OC6OC(C)C(OC7OCC(OC8OCC(O)C(O)C8O)C(O)C7O)C(O)C6O)[C@H](O)C[C@@]5(C)[C@]4(C)CC[C@H]3C2(C)C)C(O)C(O)C1O (stereo partly specified)

Result:
1: > 100 µM (inactive); 2: > 100 µM (inactive); 3: 2.13 µM (inactive)

Need GI50 for each of these molecules.
1. CN(C)CCCOCCn1c2c(c3ccccc31)CCCC2
2. C=CCCCC1CCCNC1=O (stereo unspecified)
3. C=CCn1c2c(c3ccccc3c1=O)C(=O)c1ccccc1-2
4. COc1ccc(CN(Cc2ccc(OC)cc2)C(=O)CC2(O)C=CCC2)cc1 (stereo unspecified)

Result:
["27.9 µM (inactive)", "> 100 µM (inactive)", "> 89.3 µM (inactive)", "> 100 µM (inactive)"]

Need GI50 for each of these molecules.
1. CCN(CC)CCC(=O)c1ccc(Oc2ccccc2)cc1
2. O=C(NN=C1NCCN1)c1ccco1
3. CC(=O)OCC1OC(n2c(-c3ccccc3)c(C(C)=O)c(-c3cccc4ccccc34)c(C#N)c2=S)C(OC(C)=O)C(OC(C)=O)C1OC(C)=O (stereo unspecified)

Result:
1: 27.7 µM (inactive); 2: > 100 µM (inactive); 3: > 100 µM (inactive)

Need GI50 for each of these molecules.
1. C=CC[C@]12C=C(OC)[C@@H](O)[C@](OC)(C(c3cc(OC)c4c(c3)OCO4)[C@H]1C)[C@H]2OC(C)=O (stereo partly specified)
2. CCC1c2[nH]c3ccccc3c2C[C@H]2C(=O)NC(Cc3c[nH]c4ccccc34)C(=O)N12 (stereo partly specified)
3. CC(C)C(=O)/C=C/c1c(Cl)cccc1Cl
4. CCOC(=O)Cc1c(C)c2cc(C(=O)c3ccccc3)c(O)cc2oc1=O
5. C=C(C)C1Cc2cc(C(C)=O)ccc2O1 (stereo unspecified)
6. COc1ccc(OC)c([N+](=O)[O-])c1-c1nc2sc(Cl)cn2c1/C=N/N=C(N)N
7. C=CCOc1cc2c(cc1C(C)c1ccc(OC)cc1)OCO2 (stereo unspecified)

Result:
> 100 µM (inactive)
37.7 µM (inactive)
3.51 µM (inactive)
30.8 µM (inactive)
> 100 µM (inactive)
21.8 µM (inactive)
10.6 µM (inactive)

Need GI50 for each of these molecules.
1. COc1cccc(CCNc2c(C#N)c3nc4ccccc4n3c3ccccc23)c1
2. CCOC(=O)c1nc2ccccc2nc1NCc1ccc(OC)cc1
3. O=[N+]([O-])c1ccc(/C=N/Nc2nc3ccccc3[nH]2)o1
4. CN1CCC(C(O)(c2ccccc2)c2ccc(Br)cc2)CC1 (stereo unspecified)
5. Oc1ccc(Cc2cc(Cc3ccc(O)cc3)cc(Cc3ccc(O)cc3)c2)cc1
6. CCNC1=C(NC(=O)CCl)C(=O)c2ccccc2C1=O

Result:
1: 2.29 µM (inactive); 2: > 100 µM (inactive); 3: 13.9 µM (inactive); 4: 81.5 µM (inactive); 5: > 50 µM (inactive); 6: > 10 µM (inactive)

Need GI50 for each of these molecules.
1. COc1cc(S(=O)(=O)Nc2ccc(-c3csc(N4C(=O)C(C)SC4c4cccs4)n3)cc2)ccc1Cl (stereo unspecified)
2. CCOC(=O)Oc1cc2ccsc2c2c1c1ccccc1n2C(=O)OCC
3. O=C(CP(c1ccccc1)c1ccccc1)c1cccc(C(=O)CP(c2ccccc2)c2ccccc2)c1
4. COC(=O)c1nn2ccc3ccccc3c2c1C(=O)OC

Result:
20.7 µM (inactive)
32.8 µM (inactive)
55.8 µM (inactive)
> 100 µM (inactive)

Ask: Using the record for C=C1C(=O)O[C@H]2/C=C(/C)C3=CC(=O)[C@@](C)(C[C@@H](OC(=O)/C(C)=C\C)C12)O3 (stereo partly specified) , state its measured GI50.
Result: 2.58 µM (inactive)

###

Test system: OVCAR-4
measurement notes: NCI tumour cell line growth inhibition, 48 h
Activity calls are given as the source filed them. Cut-off read from the data, not from the text of the source: active = GI50 up to about 1.1 µM and inactive = higher.
What GI50 was measured for each of the following?

Sample answers from the record:
{"columns": ["compound", "GI50"],
 "data": [
  ["C=CCNC1=C2C[C@@H](C)C[C@@H](OC)[C@H](OC(=O)CN)[C@H](C)/C=C(\\C)[C@@H](OC(N)=O)[C@H](OC)/C=C\\C=C(/C)C(=O)NC(=CC1=O)C2=O", "4.35 µM (inactive)"],
  ["CC(=O)Nc1ccc(/N=C2\\C(c3ccccc3)=C(SC3=C(c4ccccc4)/C(=N\\c4ccc(NC(C)=O)cc4)c4ccccc43)c3ccccc32)cc1", "29.6 µM (inactive)"],
  ["O=C(CSc1nnc(-c2ccccn2)s1)N/N=C/c1ccccc1", "> 100 µM (inactive)"],
  ["CCOC(=O)C(Cc1ccc(N=NN(C)C)cc1)NC(=O)CC1c2ccccc2-c2ccccc21 (stereo not given)", "> 100 µM (inactive)"],
  ["COC(=O)c1cc(C)ccc1/C=C1\\Cc2c(C)cc(C)cc2C1=O", "24.4 µM (inactive)"]
]}

Need GI50 for each of these compounds.
1. Nc1cccc(S(=O)(=O)NCC(=O)O)c1
2. CCOC(=O)c1ccc(/N=N/N(C)C(=O)C(C)N)cc1 (stereo not given)
3. CCOC(=O)C(=O)Nc1cccc(Cl)c1C
4. O=[N+]([O-])/C(C(Cl)=C(Cl)Cl)=C(\Nc1cccc2ccccc12)Sc1ccccc1
5. Cc1csc(CP(=O)(OC(C)C)OC(C)C)n1

Result:
> 100 µM (inactive)
> 100 µM (inactive)
> 100 µM (inactive)
10.4 µM (inactive)
> 100 µM (inactive)
